subject-of-test: T1, recombinant human CD70 (AviTag, polyhistidine tag and chicken tenascin trimerization domain fused to the … (chicken; human, UniProt P10039 110-139, limits assumed)
T1 construct: domain: trimerization domain; Expressed in Expi293, purified by IMAC and SEC; Copies 3 is inferred from the trimerization domain; not shown: AviTag; polyhistidine tag
T1 sequence: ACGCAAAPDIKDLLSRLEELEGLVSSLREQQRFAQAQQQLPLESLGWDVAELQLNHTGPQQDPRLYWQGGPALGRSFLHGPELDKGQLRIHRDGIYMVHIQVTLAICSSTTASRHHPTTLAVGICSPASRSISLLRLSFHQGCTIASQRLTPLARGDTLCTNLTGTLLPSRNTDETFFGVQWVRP
test-protocol: SPR (Biacore 8K, 37 C): CD70 captured via anti-AviTag antibody on C1 chip, scFv-Fc as analyte; 1:1 Langmuir fit
Provide the recorded koff for the entries that follow.
Answers are plain numbers, in s⁻¹.

binder | endpoint-unit | koff
P08E02 anti-CD70 scFv-Fc fusion (Fc fusion, scFv-Fc expressed in Expi293; not shown: part of the hinge and Fc from a modified human IgG2) EVQLVQSGAEVKKPGESLKISCKGSGYSFTSSWIGWVRQMPGKGLEWMGIIYPGDSDTRYSPSFQGQVTISADKSISTAYLQWSSLKASDTAMYYCAKGLSQAMTGFGFDYWGQGTLVTVSSGGGGSGGGGSGGGGSGGGGSELDIQMTQSPSSLSASVGDRVTITCRASQSISRYLNWYQQKPGKAPKLLIYAASILQTGVPSRFSGSGSGTDFTLTISSLQPEDFATYYCQQSYSTTMWTFGQGTKVEIK | s⁻¹ | 0.00438

Below are some binders; for each one, tell me its koff.
1. 11E1 anti-CD70 scFv-Fc fusion (Fc fusion, scFv-Fc expressed in Expi293; not shown: part of the hinge and Fc from a modified human IgG2) QVQLQESGPGLVKPLQTLSLTCTVSGGSISSDGYYWSWIRQNPGKGLEWIGYMYYSGSTYYNPSLKSRVTISVDTSKNQFSLKLRSVTAADTAVYYCTRDFGWYFDLWGRGTLVTVSSGGGGSGGGGSGGGGSGGGGSDIQMTQSPSSLSASVGDSITITCRASQDIDNYLAWYQQKTGKVPKVLIYAASALQSGVPSRFSGSGSGTDFTLTISSLQPEDVATYYCQNYNSGPRTFGQGTKVEIK
2. 9E10 anti-CD70 scFv-Fc fusion (Fc fusion, scFv-Fc expressed in Expi293; not shown: part of the hinge and Fc from a modified human IgG2) QVQLVQSGAEVTKPGASVKVSCKASGYTFTSHYIYWVRQAPGQGLEWMGWINPNSGGTNYAQKFQDRVTMARDTSISTAYMELSRLRSDDTAVYYCAKDRKREYYYNFGMDVWGQGTTVTVSAGGGGSGGGGSGGGGSGGGGSDIQMTQSPSSLSASVGDRVILTCQASQDISNYLHWYQQKPGKAPKLLIYDASDLETGVPSRFSGSGSGADFTFTISNLQPEDFATYYCQQYDHLPITFGQGTRLEIK
3. 12C4 anti-CD70 scFv-Fc fusion (Fc fusion, scFv-Fc expressed in Expi293; not shown: part of the hinge and Fc from a modified human IgG2) QVQLVQSGAEVKKPGASVKVSCKASGYTFTGYYLHWVRQAPGQGLEWMGWINPNSGGTNYAQKFQGRVTMTRDTSITTAYMELSRLRIDDTAVYYCARDRGVTMIVDGMDDWGQGTTVTVSSGGGGSGGGGSGGGGSGGGGSDIVMTQSPLSLPVTPGEPASISCRSSQSLLHSNGYNYLDWYLQKPGQSPQVLILLGSNRASGVPDRVSASGSGTDFTLKISRMQAEDVGIYYCMQTLQTPFTFGQGTKLEIK
4. P12F02 anti-CD70 scFv-Fc fusion (Fc fusion, scFv-Fc expressed in Expi293; not shown: part of the hinge and Fc from a modified human IgG2) EVQLLESGGGLVQPGGSLRLSCAASGFTFSSYAMSWVRQAPGKGLEWVSTISGTGGTTYYADSVKGRFTISRDNSKNTLYLQMNSLRAEDTAVYYCAKVRAGIDPTASDVWGQGTLVTVSSGGGGSGGGGSGGGGSGGGGSELQSVLTQPPSASGTPGQRVTISCSGSTSNIGRNYVYWYQQLPGTAPKLLIYRTNQRPSGVPDRFSGSKSGTSASLAISGLRSEDEADYYCAAWDDSLSGRVFGTGTKLTVL

1: 0.001; 2: 0.00212; 3: 0.000455; 4: 0.00155
